Sequence of the target: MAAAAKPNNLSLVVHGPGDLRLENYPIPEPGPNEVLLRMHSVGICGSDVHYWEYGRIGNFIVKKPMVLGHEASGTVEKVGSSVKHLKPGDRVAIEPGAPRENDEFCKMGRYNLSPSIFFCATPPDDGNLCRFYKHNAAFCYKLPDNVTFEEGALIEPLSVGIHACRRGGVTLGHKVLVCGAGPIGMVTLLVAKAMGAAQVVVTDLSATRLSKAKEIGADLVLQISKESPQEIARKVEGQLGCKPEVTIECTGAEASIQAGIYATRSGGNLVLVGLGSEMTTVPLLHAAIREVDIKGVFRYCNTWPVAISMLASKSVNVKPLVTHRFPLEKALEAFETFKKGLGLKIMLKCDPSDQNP
readout.name: pIC50
Note: pIC50 values are expressed as the negative base-10 logarithm of concentration in M.

| smiles.representation | pIC50 |
| --- | --- |
| CN(C)S(=O)(=O)N1CCN(c2ccnc(CO)n2)CC1 | 6.61 |

Value of pIC50 reported for the molecule "C[C@@H](O)c1nccc(N2CCN(S(=O)(=O)N(C)C)CC2)n1" is 7.57

Field pIC50 (entry "CO[C@@H](C)c1nccc(N2CCN(S(=O)(=O)N(C)C)CC2)n1" ) reads 6.31
